// provenance: the OPERA property sets (Mansouri et al. 2018)

Form field: logP (one value per entry).
// return a plain number; no unit text

molecule	readout-type	endpoint-result
N#CCc1ccco1	logP	0.85
CC(=O)OCc1ccc(Cl)cc1	logP	2.59
O=C(O)c1ccc(O)c([N+](=O)[O-])c1	logP	1.85

Answer with the recorded logP of CNCc1ccccc1 only.
1.52

Look up and report measured logP for this entry: Cc1c(O)c(=O)ccn1CCN
-1.55

Recall and state the measured logP for [O-][n+]1cccc(O)c1 .
-0.61

Report logP for CC(=O)N(c1ccc(N2CCOCC2)nn1)n1c(C)ccc1C
1.64

* * *

Each entry below carries its recorded logP.
Please reply with the number alone, leaving off any unit.

Record excerpt, results attached:
compound	logP
CC(C)[C@H](C(=O)OC(C#N)c1cccc(Oc2ccccc2)c1)c1ccc(OC(F)F)cc1 (stereo not given in full)	6.2
O=C(O)c1cccc(C(=O)O)c1	1.66
c1ccsc1	1.81
O=C1CCC(=O)N1c1ccccc1F	0.22

Supply reported logP belonging to this compound: CCOC(=O)c1ccc(O)cc1
2.47

Provide measured logP value, entry: CSc1cccc(N)c1
1.45

Give the reported logP for this compound. CC(C)I
2.89

* * *

Each entry below lists one item and its recorded logP value.

compound	logP
CCCC[N+](=O)[O-]	1.47

Supply logP value. Item: O=C(OC1CCCCC1)n1cc(F)c(=O)[nH]c1=O
1.42

* * *

List of logP values.
Enter the number alone.

compound	logP
Cc1ccc(S(I)=C(N(C)C)N(C)C)c([N+](=O)[O-])c1 (stereo not drawn)	0.23

Provide measured logP value, entry: CCN(CC)N=O
0.48

Note down logP recorded for Cc1cc(N)ccc1Br
2.53

Dear colleague, please send me the reported logP for O=[N+]([O-])C=Cc1ccco1 when you can.
1.56

Supply recorded logP for CN(C)C(N(C)C)=S(I)c1cc(Cl)c(Cl)cc1Cl (stereo not drawn) here.
0.68

Report measured logP; entry is O=[N+]([O-])c1ncn(CC(O)CN2CC2)n1 (stereo not drawn)
-0.72

Supply logP value. Item: NCCC(N)C(=O)O (stereo not drawn)
-4.64

State its logP: CCCCCOC(=O)NC
1.96

* * *

Mark criterion not met for logP values under 3, and criterion met for everything at or above.

Examples from the recorded data:
molecule	class-name
c1ccc2sccc2c1	criterion met
Cn1nnnc1SCC1=C(C(=O)O)N2C(=O)C(NC(=O)CSCC#N)C2SC1 (configuration not stated)	criterion not met
COc1cccc(S(I)=C(N(C)C)N(C)C)c1 (configuration not stated)	criterion not met
CCN(CC)C(C)C(=O)OCn1ncc2c(=O)[nH]cnc21 (configuration not stated)	criterion not met
CCCCC(=O)OCC(=O)C1(O)CCC2C3CCC4=CC(=O)CCC4(C)C3C(O)CC21C (configuration not stated)	criterion met

logP >= 3 for COCC1COC(Cn2cncn2)(c2ccc(Cl)cc2Cl)O1 (configuration not stated) ?
criterion not met

Reported logP reaches at least 3 for CC(C)OC(=O)C(C(=O)OC(C)C)=C1SCCS1=O (configuration not stated) ?
criterion not met

Decide: logP of COP(=S)(Oc1cc(Cl)c(Br)cc1Cl)c1ccccc1 (configuration not stated) >= 3?
criterion met

Hello, I need to know if C[C@@H]1C[C@H]2[C@@H]3CCC4=CC(=O)C=C[C@]4(C)[C@@]3(F)[C@@H](O)C[C@]2(C)[C@H]1C(=O)CO has measured logP not below 3. Thanks!
criterion not met

* * *

Rule: logP under 1 gives NO, otherwise YES.

compound	class-name
O=C(O)Cc1sc(-c2ccccc2)nc1-c1ccc(Cl)cc1	YES
COP(=O)(C=C(Cl)Cl)OC	YES

Now look at this one.
Confirm if logP reported for the compound Cc1ncc([N+](=O)[O-])n1CCS(=O)(=O)C(C)C is 1 or above.
NO

* * *

Please note: 1 applies when logP is 2 or greater, and -1 applies otherwise.

Answered examples (3):
compound	class-name
Nc1c([N+](=O)[O-])cccc1[N+](=O)[O-]	-1
Nc1nc(N)c2ccccc2n1	-1
CCCCCC[N+](=O)[O-]	1

Assess whether reported logP for COC(=O)C(Cc1ccc(O)cc1)NC(C)=O (stereo not drawn) sits at 2 or higher.
-1

Evaluate CCN1CC(C(O)C(CC2CCCCC2)NC(=O)C(Cc2cnc[nH]2)NC(=O)C(CC(=O)N2CC(OCOC)C(OCOC)C2)Cc2ccccc2)OC1=O (stereo not drawn) : logP at minimum 2?
1

Check the entry Oc1c(F)c(F)c(F)c(F)c1F : does logP equal or exceed 2?
1

logP >= 2 for NC(=O)c1ccsc1 ?
-1

Decide: logP of Cc1c(Cl)ccc(OC(C)C(O)=Nc2ccccc2)c1Cl (stereo not drawn) >= 2?
1

Given CCCCC1(c2ccncc2)CCC(=O)NC1=O (stereo not drawn) , state whether its logP is at least 2.
-1

Threshold query (logP >= 2) on Clc1cccnc1Cl
1

Please tell me: is the compound O=C1CN=C(c2ccccc2F)c2ccccc2N1 at or over 2 in terms of logP?
1

Can COc1ccc(Cl)cc1 be said to have logP at or above 2?
1

Textbook exercise: given the entry CCc1ccc([N+](=O)[O-])cc1 , state whether its logP is greater than or equal to 2.
1

Is reported logP greater than or equal to 2 here: O=[N+]([O-])c1cccc(Br)c1
1

* * *

Listed below: logP values for each entry.
Please state the value as a number alone, without comment.

molecule	logP
CCCC(NC(C)=O)C(N)=O (centres undefined)	-0.45
CC[N+](=O)[O-]	0.18
Cc1ccc(COC(N)=O)cc1	1.76
COCc1ccc([N+](=O)[O-])o1	0.89

In one line, give reported logP of the entry CNC(C)Cc1ccccc1 (centres undefined) .
2.07

In one line, give reported logP of the entry CN(C)CC=Cc1ccccc1 .
2.61

Note logP for the molecule shown: COC(=O)C(=Cc1ccccc1)C(=O)OC
2.24

State, in one line, measured logP of CC(C)c1cnc(NS(=O)(=O)c2ccc(N)cc2)nc1
1.23

Kindly indicate its recorded logP. Item: NS(=O)(=O)c1cc2c(cc1Cl)NC(CC1CCCC1)NS2(=O)=O (centres undefined)
1.27

Recall and state the measured logP for CC(C)(Oc1ccccc1)C(=O)N[C@@H]1C(=O)N2[C@@H]1SC(C)(C)[C@@H]2C(=O)O .
2.76

Recall and state the measured logP for N#Cc1cccc2cccnc12 .
1.39

# return recorded logP for entry Clc1ccc(Cl)nc1
2.4

Indicate its recorded logP; the molecule in question is CON(C)C(=O)Nc1cccc(C(F)(F)F)c1
2.64

Identify logP associated with the molecule COc1ccc(Cl)cc1C(=O)NCCc1ccc(C(=O)O)cc1
3.4

* * *

readout-type: logP
The answer should be a number; do not append a unit.

structure-string	logP
O=C(O)c1ccncc1	0.32
CCN(CC)c1cc(C(=O)NN)ccn1	1.12
Cc1n[nH]c(C(=O)N(C)C2CCCCC2)c1[N+](=O)[O-]	1.68

Quickly give me recorded logP for Clc1cc(Cl)c(-c2cccc(Cl)c2Cl)cc1Cl
6.67

// Input: CNC(=O)ON=C(C)SC . Output its logP only.
0.6

Item Clc1cccc(-c2ccccc2)c1 : provide logP
4.58

Specify logP for CC(=O)Nc1ccc(I)cc1 and stop.
2.71

Indicate the recorded logP value for this compound: CCc1ccc[nH]1
1.59

* * *

Measured logP of individual entries
Answer field: number only, no words.

compound	endpoint-result
Clc1cccc(Cl)n1	2.15

Quick one: give measured logP for COC(=O)CCCO
-0.06

Give the measured logP for NC(=O)CCCc1ccncc1
-0.09

For the compound CC(C)C(Br)C(=O)NC(N)=O (stereo not drawn) , report logP.
1.14

Write down logP measured for item O=[N+]([O-])c1cc[n+]([O-])c2ccc(Cl)cc12
1.41

Provide one value: measured logP of N=C(N)NS(=O)(=O)c1ccc(N)cc1
-1.22

Identify logP associated with the compound Cc1ccccc1C#N
2.21

Let me know recorded logP for CN(C)c1ccc2c(c1)C(=O)N(O)C2=O , thanks.
1.27

* * *

Mark Met only for logP values smaller than 1; exact matches and larger values are Not met.

molecule	class-name
NNC(=O)c1ccccc1[N+](=O)[O-]	Met
CN(C)CCOC(=O)c1ccc([N+](=O)[O-])cc1	Not met

Shifting focus to the molecule that follows.
Hello, I'm reviewing records and need to know if logP of OCCN1CCN(C2CC(c3ccc(F)cc3)c3ccc(C(F)(F)F)cc32)CC1 (stereo unspecified) is below 1. Could you check?
Not met

* * *

Peptide text beside a SMILES is read from it.
Simple rule here: logP less than 2 is Satisfied, otherwise Not satisfied.

Completed entries (count: 6):
compound	class-name
CC(=O)c1ccccc1[N+](=O)[O-]	Satisfied
O=P(Oc1ccccc1)(Oc1ccccc1)Oc1ccccc1	Not satisfied
CN(C)C(=O)Nc1ccc(Cl)cc1	Satisfied
COc1ccc(NS(=O)(=O)c2ccc(N)cc2)cc1	Satisfied
NC(Cc1c[nH]c2cc(F)ccc12)C(=O)O (configuration not stated)	Satisfied
CC[C@H](C)[C@H](NC(=O)[C@H](CC(C)C)NC(C)=O)C(N)=O (Ac-Leu-Ile-NH2)	Satisfied

Lab note: next compound to report on.
Identify whether the compound FCCCc1ccccc1 records logP below 2.
Not satisfied
